- measured-target: interaction between GST-hMDM2 (1-188) and biotinylated-p53 (1-83) (Homo sapiens (Human), UniProt Q00987)
- Sequence (Q00987 1-188): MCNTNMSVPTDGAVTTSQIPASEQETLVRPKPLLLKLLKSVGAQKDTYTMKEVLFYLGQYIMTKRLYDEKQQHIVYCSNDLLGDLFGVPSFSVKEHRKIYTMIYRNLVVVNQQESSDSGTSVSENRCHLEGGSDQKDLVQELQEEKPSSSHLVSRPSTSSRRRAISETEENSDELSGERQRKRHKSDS
- assay-protocol: biochemical
pIC50: −log10 of the molar value.
assay-endpoint: pIC50

Looking for the measured pIC50 of CC[C@@H](CNS(=O)(=O)c1cccnc1)N1C(=O)[C@@](C)(CC(=O)O)C[C@H](c2cccc(Cl)c2)[C@H]1c1ccc(Cl)cc1 , can you help?
> 9.00
